- EXPERIMENTAL_SYSTEM: human recombinant A3AR (expressed in HEK-293 cells) (Homo sapiens)
- Construct: host or cells: HEK-293 cells
- Sequence (P0DMS8 whole entry): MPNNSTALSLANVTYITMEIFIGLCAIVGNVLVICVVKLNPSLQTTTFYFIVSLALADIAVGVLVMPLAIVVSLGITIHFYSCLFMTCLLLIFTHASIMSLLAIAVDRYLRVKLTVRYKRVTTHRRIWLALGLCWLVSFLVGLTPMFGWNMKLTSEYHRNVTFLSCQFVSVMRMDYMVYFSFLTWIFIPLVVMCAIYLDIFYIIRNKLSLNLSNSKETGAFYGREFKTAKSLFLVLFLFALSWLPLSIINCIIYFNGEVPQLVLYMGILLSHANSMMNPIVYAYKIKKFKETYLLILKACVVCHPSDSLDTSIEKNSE
- PROCEDURE_TEXT: Adenosine receptors antagonism assay (Eurofins), [125I]-AB-MECA radioligand competition
- Assay type: binding
- CONDITION_NOTES: [125I]-AB-MECA 0.15 nM, r.t., 120 min; IC50 from dose-response curves; read-out: Potency Class A3AR
RESULT_TYPE: IC50

> print(dat)
                                    molecule                       experimental.system         reading
 1    COCCCNc1cc(NCc2ccccc2)c2nnc(C3CC3)n2n1  human recombinant A3AR (expressed in HEK-293 cells) (Homo sapiens)    10 to 100 nM
 2   CCC(CC)Nc1cc(Nc2cccnn2)c2nnc(C(C)C)n2n1  human recombinant A3AR (expressed in HEK-293 cells) (Homo sapiens)          < 1 nM
 3     CCc1nnc2c(NCc3ccccn3)cc(NC(CC)CC)nn12  human recombinant A3AR (expressed in HEK-293 cells) (Homo sapiens)      1 to 10 nM
 4   CCC(CC)Nc1cc(Nc2ccccn2)c2nnc(C3CC3)n2n1  human recombinant A3AR (expressed in HEK-293 cells) (Homo sapiens)          < 1 nM
 5  CC(C)c1nnc2c(NCc3ccccc3)cc(NC3CCCCCC3)nn12  human recombinant A3AR (expressed in HEK-293 cells) (Homo sapiens)    10 to 100 nM
 6  CC(C)c1nnc2c(NCc3ccccc3)cc(NCc3ccccn3)nn12  human recombinant A3AR (expressed in HEK-293 cells) (Homo sapiens)    10 to 100 nM
 7  CC(C)c1nnc2c(NCc3ccccc3)cc(N[C@@H]3CCCOC3)nn12  human recombinant A3AR (expressed in HEK-293 cells) (Homo sapiens)    10 to 100 nM
 8  COc1ccc(CN(C)c2cc(NCc3ccccn3)c3nnc(C4CC4)n3n2)cc1  human recombinant A3AR (expressed in HEK-293 cells) (Homo sapiens)  100 to 1000 nM
 9  CCC(CC)Nc1cc(NCc2ccccn2)c2nnc(C(C)(C)C)n2n1  human recombinant A3AR (expressed in HEK-293 cells) (Homo sapiens)    10 to 100 nM
10        COCCCNc1cc(NCCCOC)c2nnc(C3CC3)n2n1  human recombinant A3AR (expressed in HEK-293 cells) (Homo sapiens)    10 to 100 nM
11     CC(C)c1nnc2c(NCc3ccccc3)cc(NCCCO)nn12  human recombinant A3AR (expressed in HEK-293 cells) (Homo sapiens)  100 to 1000 nM
12  c1ccc(CNc2cc(N3CCCCC3)nn3c(C4CC4)nnc23)nc1  human recombinant A3AR (expressed in HEK-293 cells) (Homo sapiens)  100 to 1000 nM
13  CCC(CC)Nc1cc(NCCCc2ccccn2)c2nnc(C(C)C)n2n1  human recombinant A3AR (expressed in HEK-293 cells) (Homo sapiens)    10 to 100 nM
14  CC(C)c1nnc2c(NCc3ccccn3)cc(NC3CC4(CCC4)C3)nn12  human recombinant A3AR (expressed in HEK-293 cells) (Homo sapiens)      1 to 10 nM
15  c1ccc(CNc2cc(NCC3CC3)nn3c(C4CC4)nnc23)nc1  human recombinant A3AR (expressed in HEK-293 cells) (Homo sapiens)    10 to 100 nM
16  c1ccc(CNc2cc(NCc3ccco3)nn3c(C4CC4)nnc23)nc1  human recombinant A3AR (expressed in HEK-293 cells) (Homo sapiens)      1 to 10 nM
17   CCC(CC)Nc1cc(Nc2ccccc2)c2nnc(C(C)C)n2n1  human recombinant A3AR (expressed in HEK-293 cells) (Homo sapiens)      1 to 10 nM
18  CC(C)(C)Nc1cc(NCc2ccccn2)c2nnc(C3CC3)n2n1  human recombinant A3AR (expressed in HEK-293 cells) (Homo sapiens)      1 to 10 nM
19  c1ccc(CNc2cc(NC3CCC3)nn3c(C4CC4)nnc23)nc1  human recombinant A3AR (expressed in HEK-293 cells) (Homo sapiens)      1 to 10 nM
20  CC[C@@H](CO)Nc1cc(NCc2ccccn2)c2nnc(C3CC3)n2n1  human recombinant A3AR (expressed in HEK-293 cells) (Homo sapiens)    10 to 100 nM
21  CCC(CC)CNc1cc(NCCc2cccnc2)c2nnc(C(C)C)n2n1  human recombinant A3AR (expressed in HEK-293 cells) (Homo sapiens)      1 to 10 nM
22    CC(C)Nc1cc(NCc2ccccn2)c2nnc(C3CC3)n2n1  human recombinant A3AR (expressed in HEK-293 cells) (Homo sapiens)      1 to 10 nM
23  CC[C@@H](CO)Nc1cc(NCc2ccc(Br)cc2)c2nnc(C(C)C)n2n1  human recombinant A3AR (expressed in HEK-293 cells) (Homo sapiens)    10 to 100 nM
24  CCC(CC)Nc1cc(NCc2ccncc2)c2nnc(C(C)C)n2n1  human recombinant A3AR (expressed in HEK-293 cells) (Homo sapiens)      1 to 10 nM
25  CCC(CC)Nc1cc(NCc2cccc(O)c2)c2nnc(C(C)C)n2n1  human recombinant A3AR (expressed in HEK-293 cells) (Homo sapiens)      1 to 10 nM
26  CC(C)c1nnc2c(NCc3ccccc3)cc(NC34CC5CC(CC(C5)C3)C4)nn12  human recombinant A3AR (expressed in HEK-293 cells) (Homo sapiens)  100 to 1000 nM
27   CCC(CC)Nc1cc(Nc2ncccn2)c2nnc(C3CC3)n2n1  human recombinant A3AR (expressed in HEK-293 cells) (Homo sapiens)    10 to 100 nM
28  CC[C@H](CO)Nc1cc(NCc2ccccc2O)c2nnc(C(C)C)n2n1  human recombinant A3AR (expressed in HEK-293 cells) (Homo sapiens)      1 to 10 nM
29  CC(C)c1nnc2c(NCc3ccccc3)cc(NC3CCCC3)nn12  human recombinant A3AR (expressed in HEK-293 cells) (Homo sapiens)      1 to 10 nM
30  CCC(CC)Nc1cc(NCc2ccccn2)c2nnc(-c3ccccc3)n2n1  human recombinant A3AR (expressed in HEK-293 cells) (Homo sapiens)    10 to 100 nM
31  CCC(CC)Nc1cc(NCCc2ccccc2)c2nnc(C3CC3)n2n1  human recombinant A3AR (expressed in HEK-293 cells) (Homo sapiens)      1 to 10 nM
32  CCC(CC)Nc1cc(NCc2cncnc2)c2nnc(C(C)C)n2n1  human recombinant A3AR (expressed in HEK-293 cells) (Homo sapiens)      1 to 10 nM
33  c1ccc(CNc2cc(NC3CCCCC3)nn3c(C4CC4)nnc23)nc1  human recombinant A3AR (expressed in HEK-293 cells) (Homo sapiens)      1 to 10 nM
34  CCOC(=O)CCNc1cc(NCc2ccccc2)c2nnc(C(C)C)n2n1  human recombinant A3AR (expressed in HEK-293 cells) (Homo sapiens)    10 to 100 nM
35  CC[C@@H](CO)Nc1cc(Nc2cccnn2)c2nnc(C3CC3)n2n1  human recombinant A3AR (expressed in HEK-293 cells) (Homo sapiens)          < 1 nM
36  CCC(CC)Nc1cc(NCc2ccccn2)c2nnc(-c3ccccn3)n2n1  human recombinant A3AR (expressed in HEK-293 cells) (Homo sapiens)  100 to 1000 nM
37  CCC(CC)Nc1cc(NC2CCc3ccccc32)c2nnc(C(C)C)n2n1 (racemic)  human recombinant A3AR (expressed in HEK-293 cells) (Homo sapiens)    10 to 100 nM
